So I've got a bunch of molecules here, and I need their pIC50 values.
assay-system: PI3Kδ (Homo sapiens, UniProt O00329)
Sequence (O00329 whole entry): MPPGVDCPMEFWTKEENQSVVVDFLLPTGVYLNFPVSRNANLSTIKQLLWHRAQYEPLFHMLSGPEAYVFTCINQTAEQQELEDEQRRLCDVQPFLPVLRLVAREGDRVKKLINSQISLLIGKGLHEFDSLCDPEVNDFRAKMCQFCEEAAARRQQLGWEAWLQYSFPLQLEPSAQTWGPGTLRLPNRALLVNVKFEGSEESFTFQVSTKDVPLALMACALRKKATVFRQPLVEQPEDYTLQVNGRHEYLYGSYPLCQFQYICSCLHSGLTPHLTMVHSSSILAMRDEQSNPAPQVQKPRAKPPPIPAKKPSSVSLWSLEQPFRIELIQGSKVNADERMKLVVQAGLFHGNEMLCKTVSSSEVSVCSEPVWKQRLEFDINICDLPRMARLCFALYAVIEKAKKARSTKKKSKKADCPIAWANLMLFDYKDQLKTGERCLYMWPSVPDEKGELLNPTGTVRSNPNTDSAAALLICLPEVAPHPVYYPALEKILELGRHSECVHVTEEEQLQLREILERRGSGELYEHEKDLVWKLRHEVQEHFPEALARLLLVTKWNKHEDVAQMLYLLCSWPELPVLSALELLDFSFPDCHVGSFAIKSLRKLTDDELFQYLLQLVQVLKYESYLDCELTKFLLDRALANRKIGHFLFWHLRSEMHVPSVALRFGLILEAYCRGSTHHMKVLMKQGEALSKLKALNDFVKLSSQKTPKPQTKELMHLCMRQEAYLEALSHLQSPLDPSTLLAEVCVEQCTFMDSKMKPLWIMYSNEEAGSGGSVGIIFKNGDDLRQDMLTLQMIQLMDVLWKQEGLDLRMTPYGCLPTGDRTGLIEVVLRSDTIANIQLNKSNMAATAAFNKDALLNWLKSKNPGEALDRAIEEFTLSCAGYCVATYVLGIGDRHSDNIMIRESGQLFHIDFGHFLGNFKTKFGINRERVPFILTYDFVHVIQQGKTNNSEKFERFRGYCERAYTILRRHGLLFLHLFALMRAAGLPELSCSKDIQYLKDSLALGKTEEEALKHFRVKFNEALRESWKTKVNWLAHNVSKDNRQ
Sequence (P27986 whole entry partner): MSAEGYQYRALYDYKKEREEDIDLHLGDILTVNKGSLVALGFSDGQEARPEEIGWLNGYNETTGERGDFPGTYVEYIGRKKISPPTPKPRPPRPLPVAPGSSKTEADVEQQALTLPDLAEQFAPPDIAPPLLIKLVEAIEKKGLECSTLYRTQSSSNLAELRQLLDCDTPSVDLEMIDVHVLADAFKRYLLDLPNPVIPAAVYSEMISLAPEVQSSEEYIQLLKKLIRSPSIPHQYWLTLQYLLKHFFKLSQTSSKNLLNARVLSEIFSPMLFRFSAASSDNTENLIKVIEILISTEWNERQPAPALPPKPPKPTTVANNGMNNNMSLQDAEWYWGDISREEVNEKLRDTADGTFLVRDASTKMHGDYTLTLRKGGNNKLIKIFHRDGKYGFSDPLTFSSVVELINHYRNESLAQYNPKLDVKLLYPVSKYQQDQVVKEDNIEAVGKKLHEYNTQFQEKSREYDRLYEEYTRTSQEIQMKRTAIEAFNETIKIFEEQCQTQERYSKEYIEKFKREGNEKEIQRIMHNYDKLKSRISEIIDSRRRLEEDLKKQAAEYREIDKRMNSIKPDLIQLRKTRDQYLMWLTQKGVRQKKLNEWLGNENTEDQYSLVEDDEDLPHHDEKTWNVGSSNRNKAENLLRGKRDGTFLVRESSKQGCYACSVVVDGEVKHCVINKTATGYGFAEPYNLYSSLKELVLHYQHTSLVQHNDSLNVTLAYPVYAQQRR
experiment-description: In vitro enzyme inhibition assay (Kinase Glo), PI3Kδ
Type: biochemical
particulars: Test (a); human recombinant enzyme; Table A; read-out: PI3Kδ inhibition, IC50
Recall that pIC50 is obtained by taking minus log10 of the concentration measured in molar.

Record COc1cccc(N2CCC[C@@H]2c2cc(C(=O)N3CCOCC3)cc3c(=O)cc(N4CCOCC4)oc23)c1 , field pIC50: 7.82

Record CN1CCN(C(=O)c2cc([C@H]3CCCN3c3cccc(F)c3)c3oc(N4CCOCC4)cc(=O)c3c2)CC1 , field pIC50: 7.68

Record CN(C)C(=O)c1cc(C2CCCN2c2cccc(F)c2)c2oc(N3CCOCC3)cc(=O)c2c1 (stereo not shown) , field pIC50: 7.92

Record CN(CCO)C(=O)c1cc(C2CCCN2c2cc(F)cc(F)c2)c2oc(N3CCOCC3)cc(=O)c2c1 (stereo not shown) , field pIC50: 7.80
